Where do these numbers come from? They come from ChEMBL document CHEMBL1955797.

- tested-system: Cytochrome P450 3A4 (Homo sapiens)
- Sequence (P08684 whole entry): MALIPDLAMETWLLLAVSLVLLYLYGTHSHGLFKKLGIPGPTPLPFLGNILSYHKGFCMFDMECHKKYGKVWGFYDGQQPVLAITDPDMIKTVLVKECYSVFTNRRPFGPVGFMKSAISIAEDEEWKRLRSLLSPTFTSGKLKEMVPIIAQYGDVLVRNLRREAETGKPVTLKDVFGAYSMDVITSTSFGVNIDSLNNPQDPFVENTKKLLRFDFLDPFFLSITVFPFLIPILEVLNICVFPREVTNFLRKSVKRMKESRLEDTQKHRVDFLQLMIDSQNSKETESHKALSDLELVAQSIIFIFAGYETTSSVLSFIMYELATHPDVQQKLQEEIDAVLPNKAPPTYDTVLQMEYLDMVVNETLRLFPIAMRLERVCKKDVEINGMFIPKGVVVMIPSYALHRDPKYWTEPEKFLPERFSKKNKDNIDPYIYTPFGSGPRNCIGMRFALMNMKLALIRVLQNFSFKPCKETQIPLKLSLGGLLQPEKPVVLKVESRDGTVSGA
- experiment: Inhibition of recombinant CYP3A4
- Assay type: ADME
readout: IC50 (µM)
Answer with a number only, understood to be in µM.

INPUT: Query the reported IC50 for Cytochrome P450 3A4 (Homo sapiens); item: FC(F)(F)c1ccccc1-c1ccc2[nH]c(/C=C/C3CCCCC3)nc2c1
OUTPUT: 3.5

###

- tested-system: Transient receptor potential cation channel subfamily M member 8 (Homo sapiens)
- Sequence (Q7Z2W7 whole entry): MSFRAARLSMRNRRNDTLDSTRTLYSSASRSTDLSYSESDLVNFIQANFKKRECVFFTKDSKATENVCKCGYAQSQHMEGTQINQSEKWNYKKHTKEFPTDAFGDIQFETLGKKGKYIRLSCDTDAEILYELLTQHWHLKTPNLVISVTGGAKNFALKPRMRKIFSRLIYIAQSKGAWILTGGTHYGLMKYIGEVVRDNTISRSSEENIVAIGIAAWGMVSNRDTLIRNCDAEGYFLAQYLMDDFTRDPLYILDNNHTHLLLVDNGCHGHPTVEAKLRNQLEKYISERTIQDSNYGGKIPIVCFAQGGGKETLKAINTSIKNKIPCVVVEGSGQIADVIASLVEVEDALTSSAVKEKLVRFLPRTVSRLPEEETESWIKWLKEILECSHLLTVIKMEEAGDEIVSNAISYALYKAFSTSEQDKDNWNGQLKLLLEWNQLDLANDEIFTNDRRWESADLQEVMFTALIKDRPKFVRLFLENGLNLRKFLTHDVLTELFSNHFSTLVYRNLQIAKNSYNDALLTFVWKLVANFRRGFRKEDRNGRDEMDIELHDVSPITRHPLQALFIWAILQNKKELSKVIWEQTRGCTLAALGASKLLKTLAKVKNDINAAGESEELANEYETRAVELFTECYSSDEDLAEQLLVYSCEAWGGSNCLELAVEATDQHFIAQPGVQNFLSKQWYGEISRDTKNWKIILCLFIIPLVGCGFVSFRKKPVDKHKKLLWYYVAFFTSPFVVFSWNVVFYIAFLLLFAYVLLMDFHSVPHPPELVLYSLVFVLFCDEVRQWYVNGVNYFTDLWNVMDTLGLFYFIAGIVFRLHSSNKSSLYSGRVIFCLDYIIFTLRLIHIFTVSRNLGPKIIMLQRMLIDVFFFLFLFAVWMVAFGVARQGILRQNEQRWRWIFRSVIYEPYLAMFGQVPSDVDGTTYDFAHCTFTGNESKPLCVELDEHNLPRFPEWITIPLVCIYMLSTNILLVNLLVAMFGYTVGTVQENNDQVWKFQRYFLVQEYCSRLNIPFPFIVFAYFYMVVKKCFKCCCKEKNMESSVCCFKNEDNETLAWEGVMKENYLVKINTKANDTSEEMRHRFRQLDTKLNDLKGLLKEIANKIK
- experiment: Antagonist activity at human TRPM8 by calcium flux assay
readout: IC50 (µM)
Answer with a number only, understood to be in µM.

INPUT: Given FC(F)(F)c1ccccc1-c1ccc2[nH]c(/C=C/C3CCCCC3)nc2c1 , state its recorded IC50.
OUTPUT: 0.015
